Taken from paper PMC9482650.

TARGET_OF_ASSAY: T1, HTRA4, P83105
T1 sequence (P83105 378-476, limits assumed, looked up): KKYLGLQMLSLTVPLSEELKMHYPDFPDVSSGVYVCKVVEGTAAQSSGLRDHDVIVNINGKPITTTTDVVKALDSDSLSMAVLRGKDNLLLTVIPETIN
PROTOCOL: holdup assay
Parameters: key: below the threshold = too weak to quantify, mostly under pKd 3.1 to 4
APPLIED_CONDITIONS: plain residues with an end cap or a label only (N-terminal biotin on a linker: ttds)

BINDER	pKd
PKRPFVESNV [TANC2, Q9HCD6]	below the threshold
DPLTPSRSQL [DGKK, Q5KSL6]	below the threshold
LDSQIQETSI [MAP4, P27816]	below the threshold
